Each recorded value in this set is attributed to PubChem BioAssay (NCATS).

- protocol_summary: Cellular Toxicity (caspase-3) Hek293 (AID 664);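 further: cells exposed to compound for 16 h at 37 °C before readout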
- details: HEK293 caspase-3 activation, DMSO = 0%, 100 µM tamoxifen = 100%; at 92.2 µM (top of the series)
Records with an inconclusive call do not appear.
Field: caspase-3 activation. Provide a value for each of the molecules that follow.
Numbers only here, please. The scale is %.

Sample Cc1ccccc1C(=O)O ; caspase-3 activation observed: -3.25

Summary for this molecule, O=Cc1cccc(Br)c1 : caspase-3 activation is 4.91

For this molecule ( C=CCOC(=O)CCCCCCCC ), measured caspase-3 activation is 1.74

// field: caspase-3 activation; key: Clc1ccccn1 ; value = 0.154

What the record says about CC(C)N(C)C : caspase-3 activation is 1.04

Record summary for Cc1cc(C)c(N)cc1C : reported caspase-3 activation = 2.78

The molecule NC(=O)c1ccccc1[N+](=O)[O-] showed caspase-3 activation equal to 0.369

Entry Nc1cc(S(=O)(=O)O)ccc1O — recorded caspase-3 activation = -0.175

Reported caspase-3 activation for N#Cc1ccccc1 was 1.36

// recorded caspase-3 activation for Clc1ccc(Cl)c(Cl)c1Cl : -1.37

Consider C=CCOC(=O)COCCC(C)C . Its measured caspase-3 activation is -2.01

Please fill in: caspase-3 activation reported for c1ccc(Nc2ccccc2)cc1 = -0.415

molecule C=CCCCCCCC=C , caspase-3 activation observed: 5.13

Looking up CC(=O)OCCC(C)C , I see its caspase-3 activation listed as -0.0363

The molecule listed as CC(C)CO shows caspase-3 activation equal to -2.74

Documented caspase-3 activation of O=C(O)c1ccc(C(=O)O)cc1 : -1.8

Input c1ccc2c(c1)ccc1ncccc12 . Output caspase-3 activation: 1.59

In plain terms, CCCCC(=O)N(C)C has a documented caspase-3 activation of 1.13

Measured caspase-3 activation, CCN(CC)c1cccc(O)c1 : 0.00739

Summary for this molecule, CC(C)=CCl : caspase-3 activation is 1.55

Sample CC(C)=CCC/C(C)=C/C=O ; caspase-3 activation observed: -2.02

response.value for COc1ccccc1[N+](=O)[O-] (field: caspase-3 activation) = -0.651

// caspase-3 activation lookup, molecule = C=CC(=O)NC(C)C , result: 2.01

caspase-3 activation reported for this molecule CC#N : 1.27

Item: CSCCC=O | caspase-3 activation: -2.79

Record summary for CC(C)C(C)C : reported caspase-3 activation = -1.39

Value of measured caspase-3 activation for the entry COCCOC(=O)c1ccccc1C(=O)OCCOC : 0.308

What the record says about Nc1cccc(S(=O)(=O)O)c1 : caspase-3 activation is -1.89

caspase-3 activation measured on COC(=O)CCCC(=O)OC = -0.162

The molecule listed as Cc1cccc(C(=O)O)c1[N+](=O)[O-] has a reported caspase-3 activation of 3.47

Notebook: CCCCCCCCCCCCC1CO1 (configuration not stated) , caspase-3 activation read as 1.51

The measured caspase-3 activation associated with O=C(O)c1ccc(CO)o1 reads -0.635

So for CC/C(C)=N/O , the logged caspase-3 activation turned out to be 1.42

Lookup result for Cc1ccc(Cl)cc1 ; measured caspase-3 activation: 0.748

Per the records, this molecule ( CCCC=O ) has caspase-3 activation equal to -2.73

Form field caspase-3 activation, entry O=[N+]([O-])c1ccc2nc[nH]c2c1 : 0.287

CCCCC(CC)CO (configuration not stated) yielded caspase-3 activation of 1.6

###

- protocol_summary: Cellular Toxicity (caspase-3) SK-N-SH (AID 661);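 further: cells exposed to compound for 16 hours; 0% = DMSO basal and 100% = 10 µM staurosporine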
- details: SK-N-SH caspase-3 activation, qHTS, DMSO as zero, staurosporine as full; series mostly up to 91.7 µM
Activity calls are given as the source filed them. Calls follow the shape of the dose curve; as a rule, active = well fitted activation curve with a large enough effect; inconclusive = small, poorly fitted or top-dose-only effect; inactive = flat fitted curve, though single readings scatter.
property_label: outcome

Cc1cc(C)cc([N+](=O)[O-])c1 | inactive
CCc1ccccc1 | inactive
CC/C=C1/OC(=O)c2ccccc21 | inactive
CC(=O)OCCC(C)C | inactive
CCNS(=O)(=O)c1ccc(C)cc1 | inactive

// field: outcome; key: Clc1ccccn1 ; value = inactive

Field outcome (entry O=Cc1ccc(CO)o1 ) reads inactive

Query NC(=O)CCCCC(N)=O yields outcome of inactive

Memo: Clc1cc(Cl)cc(Cl)c1 , reported outcome: inactive

###

- protocol_summary: Cellular Toxicity (caspase-3) Mesangial (AID 660);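 further: combined caspase 3 and 7 activity read by Caspase-Glo luminescence; cells exposed to compound for 16 h before the caspase read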
- details: mesangial cells, normalized: DMSO 0%, 100 µM tamoxifen 100%; at 91.7 µM (top of the series)
property_label: caspase-3 activation (%)
Provide the reading as a plain figure in %.

O=[N+]([O-])c1cccc(C(F)(F)F)c1 has a reported caspase-3 activation of -1.76

Looking up CCCCCCCCC/C=C/CC1CC(=O)OC1=O (centres undefined) , I found its caspase-3 activation recorded as 0.816

Recorded caspase-3 activation (compound O=Cc1c(Cl)cccc1Cl ): -0.583

Input O=Cc1ccc(Cl)cc1 . Output caspase-3 activation: 0.65

For reference, reported caspase-3 activation for COc1ccc(N)c(C)c1 stands at 2.2

Looking up C=C(C)C(=O)OC , I found its caspase-3 activation recorded as 0.161

compound Cc1ccc(Cl)cc1N , caspase-3 activation observed: -0.617

// CC1CCCO1 (centres undefined) : caspase-3 activation value = -0.0447

The compound listed as CSCCC=O has a reported caspase-3 activation of 0.0965

###

- protocol_summary: qHTS assay for small molecule agonists of the antioxidant response element (ARE) signaling pathway measured by Nrf2-dependant transcriptional activity - cell viability counter screen (AID 720653); further: on the % scale 0 is the no-effect control and ±100 the full control effect
- details: ARE-bla HepG2 viability, CellTiter-Glo ATP luminescence, 16 h; stronger effect = lower value
Records with an inconclusive call do not appear.
property_label: max response (%)
Numeric only. Scale: %

max response measured on CCCCCO = 3.66

// field: max response; key: Cc1ccc(C(C)(C)C)cc1 ; value = -0.19

So for CC1(N)CCC(C(C)(C)N)CC1 (stereo not given) , the logged max response turned out to be 1.22

CC(=O)c1cccc([N+](=O)[O-])c1 yielded max response of 17.8

Per the records, this molecule ( CC(=O)CCc1ccccc1 ) has max response equal to 0.255

GET /value?item= CCOc1cc(OCC)c(C(C)=O)cc1OCC &field=max response returns 3.21

max response in this record for CCCCCCCCCCCCOCC1CO1 (stereo not given) : 2.47

Please fill in: max response reported for CCC=O = -3.76

Looking up Cc1c(N)cccc1N , I see its max response listed as 1.04

Item: ON=C1CCCCC1 | max response: 5.44

// field: max response; key: CC(C)CCOC(=O)/C=C/c1ccccc1 ; value = 5.13

max response for Cc1cc(C)cc([N+](=O)[O-])c1 is -11.8

Entry CN(C)CCCNCCCN ; max response = -2.03

Measured max response of O=C(O)c1c(Cl)cccc1Cl : -7.83

max response recorded for this molecule, C=CCn1c(=O)n(CC=C)c(=O)n(CC=C)c1=O , is -13.5

Notebook: O=Cc1cccc(Br)c1 , max response read as 0.536

The recorded max response for entry CCOC(=O)OCC equals 2.96

So, Fc1ccccc1 ? Its max response was 8.77

Briefly, max response measured for Nc1cccc([N+](=O)[O-])c1 : 11.8

Recorded max response (molecule O=C(O)c1cccc(Cl)c1Cl ): 3.31

// max response lookup, molecule = CC(=O)Nc1ccc(C)cc1 , result: 2.3

Entry Cc1nc2ccc(Cl)cc2[nH]1 — recorded max response = -4.37

What the record says about CCOC(C)(C)C : max response is -6.47

GET /value?item= CCN(C(=O)N(CC)c1ccccc1)c1ccccc1 &field=max response returns -10.4

Lab book: max response of NC(=O)c1cccc([N+](=O)[O-])c1 noted as -9.57

The recorded max response for OC1CCCC1 is -3.18

// field: max response; key: CCC(C)(C)OC ; value = -14.5

// recorded max response for COC(=O)CS : -0.555

Sure, the documented max response for [O-]/[N+](=N\O)c1ccccc1 is -5.46

According to the records, this molecule CC(O)COC(C)(C)C (stereo not given) displays max response of 7.93

###

- protocol_summary: qHTS assay for small molecule antagonists of retinoid X receptor alpha signaling (AID 588546);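 further: cells stimulated with 9-cis-retinoic acid as agonist; on the % scale 0 is the no-effect control and ±100 the full control effect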
- details: HEK293T RXRa-UAS-bla, beta-lactamase ratio, antagonist mode; measured here: W530 green channel, cytotoxicity proxy
Records with an inconclusive call do not appear.
I'd be grateful if you could share measured max response for these entries.
Unit % implied. Number only.

max response recorded for this molecule, O=C(O)c1ccc(Cl)cc1Cl , is -6.82

// max response value for O=C(O)c1c(Cl)cccc1Cl : 2.22

Entry CCCCCCCCN — recorded max response = 2.38

The molecule listed as CCOc1ccccc1N shows max response equal to -5.65

# max response of C=CCCCCCCC=C = -1.72

Entry under test: C=CCCCCCC . Its max response was 0.804

The value of max response measured for the molecule C=CC(=O)NC(C)C turned out to be 5.01

Form field max response, entry CCOc1cccc(N)c1 : 5.53

Entry CCOCC(=O)O , max response reported as 2.97

Record C/C(C=O)=C/c1ccccc1 . Reported max response: 2.35

max response reading for Cc1ccc(C(=O)O)cc1 : -2.83

Value of max response reported for the molecule Cc1cccc2ccccc12 is -10.1

Reported max response of Cc1ccc(C)cc1 : -6.14

Value of max response reported for the molecule Cc1ccc2nc(-c3ccc(N)cc3)sc2c1S(=O)(=O)O is -1.52

Field max response (entry CCCCCCCCC/C=C/CC1CC(=O)OC1=O (configuration not stated) ) reads 1.93

Summary for this molecule, CC(=O)OCc1ccco1 : max response is -0.347

Form: molecule = C=Cc1ccc(C=C)cc1 ; max response = -3.44
